Origin of the recorded values: paper PMC6309922

Biological target: LchARH3 (Latimeria chalumnae)
Construct: LchARH3 (GenBank: XP_005988572; aa residues 10-362); made in house; host or cells: E. coli Rosetta (DE3)
Sequence (H3BCW1 10-356 limits assumed): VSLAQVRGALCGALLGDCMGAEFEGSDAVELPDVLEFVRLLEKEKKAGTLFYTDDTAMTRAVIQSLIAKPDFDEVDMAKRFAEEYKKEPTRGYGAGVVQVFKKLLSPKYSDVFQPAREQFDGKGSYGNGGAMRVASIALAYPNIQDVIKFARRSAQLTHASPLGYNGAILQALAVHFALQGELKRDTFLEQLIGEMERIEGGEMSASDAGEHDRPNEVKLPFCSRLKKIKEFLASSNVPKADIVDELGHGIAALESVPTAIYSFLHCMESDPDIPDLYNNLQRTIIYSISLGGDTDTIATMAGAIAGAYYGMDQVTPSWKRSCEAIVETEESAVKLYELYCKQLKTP
Assay: biochemical
Assay type: binding
Details: DSF, rounded; read-out: Kd of magnesium on its own
Property measured: Kd

input: Request - read-out Kd | tested on LchARH3 (Latimeria chalumnae) | molecule [Mg+2] [MgCl2, Magnesium chloride hexahydrate]
output: ~2300 µM
